tested on: SK-MEL-28; test: NCI tumour cell line growth inhibition, 48 h
The source made the active and inactive calls. Rule as the data show it: active = GI50 up to about 1.1 µM and inactive = higher.
Choose the fitting class; nothing outside active, inactive is accepted.

For CCN(CC)C(=O)COc1ccc(Br)cc1Br , which call appears in the assay record?
inactive

For CC1CC(c2cccc3c2OCO3)=Nc2ccccc2S1 (configuration not stated) , which call appears in the assay record?
inactive

For Cc1ccc(/N=N/c2c(C)c(C#N)c(=S)n(C3OC(CO)C(O)C(O)C3O)c2C)cc1 (configuration not stated) , which call appears in the assay record?
inactive

For COc1ccc2nccc(C3OC(=O)N4CCC(=O)CC34)c2c1 (configuration not stated) , which call appears in the assay record?
inactive

For CC(=O)O[C@H]1CC[C@@]2(C)C(CC[C@]3(C)C2CC[C@]2(C)Oc4c(C)cc(O)cc4C[C@@H]23)C1(C)C (some centres not stated) , which call appears in the assay record?
inactive

For Cc1cc(C)c(/N=N/c2c(O)c(S(=O)(=O)O)cc3cc(S(=O)(=O)O)ccc23)cc1C , which call appears in the assay record?
inactive

For O=C1C(NCCF)=C(Cl)C(=O)c2ncccc21 , which call appears in the assay record?
active

---

test system: NCI-H522; test: NCI tumour cell line growth inhibition, 48 h
The source made the active and inactive calls. Cut-off read from the data, not from the text of the source: active = GI50 up to about 1.1 µM and inactive = higher.
Choose the fitting class; nothing outside class 1 = active, class 0 = inactive is accepted.

For CCCSC1=N/C(=C\c2ccco2)C(=O)N1 , which call appears in the assay record?
class 0

For Cn1c(N)c(/N=N/c2ccc(S(N)(=O)=O)cc2)c(=O)n(C)c1=O , which call appears in the assay record?
class 0

For C=C(CN(C)C)C(=O)c1ccccc1 , which call appears in the assay record?
class 1

For COc1cccc(-c2nnc3c(-c4ccccc4)nc4ccccc4n23)c1 , which call appears in the assay record?
class 0

For COC(=O)/C(C)=N/N=C(\S)SC , which call appears in the assay record?
class 0

For Cc1ccc(S(=O)(=O)Oc2nc3ccccc3nc2OS(=O)(=O)c2ccc(C)cc2)cc1 , which call appears in the assay record?
class 0

---

system: MCF7; test: NCI tumour cell line growth inhibition, 48 h
Structures can show the parent of a compound that is named as a salt. Activity calls are given as the source filed them. Cut-off read from the data, not from the text of the source: active = GI50 up to about 1.1 µM and inactive = higher.
Choose the fitting class; nothing outside 1 (active), 0 (inactive) is accepted.

For CCCC(=O)Nc1cc(/C=C/C(=O)N2CC(CCl)c3c2cc(OC(C)=O)c2[nH]cc(C)c32)n(C)c1 (configuration not stated) , which call appears in the assay record?
1

For COC(=O)/C(C)=N/N=C(\S)SC , which call appears in the assay record?
0

For COc1ccc2c(c1OC)CN1CCc3cc4c(cc3C1C2)OCO4 (configuration not stated) [TETRAHYDROBERBERINE] , which call appears in the assay record?
0

For Cc1ccc(S(=O)(=O)N2CCC(C(=O)O)(c3ccccc3)CC2)cc1 , which call appears in the assay record?
0

For CCOC(=O)Nc1nc2cc(Cn3cccc3)ccc2[nH]1 , which call appears in the assay record?
0

For Cc1ccc(-c2nc(Cc3n[nH]c(-c4ccc(C)cc4)n3)n[nH]2)cc1 , which call appears in the assay record?
0

For O=C1c2c(ccc3c2CCC3)CC12Cc1ccccc1C2 , which call appears in the assay record?
0

For COc1cc(Nc2c(C#N)[n+]([O-])c3ccccc3[n+]2[O-])cc(OC)c1OC , which call appears in the assay record?
0

For C[C@]12CC[C@@H]3c4ccc(O)cc4CC[C@H]3[C@@H]1C/C(=C\c1ccc(C#N)cc1)C2=O , which call appears in the assay record?
0

For N=C(CSS(=O)(=O)O)NC1CC2CCC1C2 (configuration not stated) , which call appears in the assay record?
0

For O=C1C=CC(=O)c2c1c1c(c3c2C2c4ccccc4C3c3ccccc32)C2c3ccccc3C1c1ccccc12 , which call appears in the assay record?
0

For CC1(C)CC[C@]2(C(=O)O)CC[C@]3(C)C(=CC[C@@H]4[C@@]5(C)C[C@H](O)[C@H](O)[C@@](C)(CO)C5=CC[C@]43C)[C@@H]2C1 , which call appears in the assay record?
0

For CCOP1(=O)CC(C)=C(Cl)C(O)C1 (configuration not stated) , which call appears in the assay record?
0

For N=C1C(O)C2(I)c3ccccc3N3C(=N)C(O)C4c5ccccc5N1C4C32 (configuration not stated) , which call appears in the assay record?
0

For CCOC(=O)CN1C(=O)c2ccc(NC(=O)C(=O)O)cc2S1(=O)=O , which call appears in the assay record?
0

For OC[C@@H](O)[C@H](O)[C@H](O)[C@@H](O)C1SCCCS1 , which call appears in the assay record?
0

For CN1CCc2c(sc3ncn(C)c(=N)c23)C1 , which call appears in the assay record?
0

For C=CC1(CBr)CCC(C(C)(C)Br)O1 (configuration not stated) , which call appears in the assay record?
0

For N#C/C(=C(\O)C(=O)O)c1ccc(-c2cccc3ccccc23)cc1 , which call appears in the assay record?
0

For CC(=O)c1nc2ccccc2n1CC(=O)c1ccc(Cl)cc1 , which call appears in the assay record?
0

For O=C1c2cccc3cc4ccccc4c(c23)C(=O)N1CCNCCNCCNCCN1C(=O)c2cccc3cc4ccccc4c(c23)C1=O , which call appears in the assay record?
1

For Cc1ccc2c3ccc4c(c3n(C)c2c1)C(=O)C=CC4=O , which call appears in the assay record?
0

For COc1cc(S(=O)(=O)Nc2nc(-c3ccc(/N=C/c4cccs4)cc3)cs2)ccc1Cl , which call appears in the assay record?
0

For CC[C@@H]1C(=O)OC[C@@H]1Cc1cncn1C [PILOCARPINE HYDROCHLORIDE] , which call appears in the assay record?
0

For C[C@@H]1C[C@H]2OC(=O)[C@@]3(C)CCC[C@@](C)([C@@H]23)[C@@]1(O)CCc1ccoc1 , which call appears in the assay record?
0

For O=C(CCc1cc(O)cc(O)c1)NCCCNC(=O)CCc1cc(O)cc(O)c1 , which call appears in the assay record?
0

For O=c1[nH]c(=O)n(COCCO)c2ccsc12 , which call appears in the assay record?
0

For Nc1nc2c(C(=O)O)c3ccc([N+](=O)[O-])cc3c(=O)n2c2ccccc12 , which call appears in the assay record?
0

For CC#CC#C/C=C1/O[C@]2(CCC(OC(C)=O)CO2)[C@@H]2O[C@H]12 (some centres not stated) , which call appears in the assay record?
0

For NC1=CN2c3ccccc3N(CC(=O)N3CCOCC3)C2C=C1 (configuration not stated) , which call appears in the assay record?
0

For Nc1nc(SCC(=O)c2ccccc2)nc2nc3c(c(-c4ccccc4)c12)CCCC3 , which call appears in the assay record?
0

For COc1cc(Nc2nc3cc(C(F)(F)F)ccc3nc2C(=O)O)cc(OC)c1OC , which call appears in the assay record?
0
